Measured Plasma half life % remaining after 2 h values are reported for all entries that follow.
test: Mouse plasma stability; format: in vitro ADME, CD-1 mouse; conditions: Table 2, 37° C., 1 μM lipid

| COMPOUND | ENDPOINT_UNIT | Plasma half life % remaining after 2 h |
| --- | --- | --- |
| CCCCC(C)(C)CC(=O)OCC(C)(COC(=O)CCN(CCC(=O)OCC(C)(COC(=O)CC(C)(C)CCCC)COC(=O)CC(C)(C)CCCC)C(=O)SCCCN(C)C)COC(=O)CC(C)(C)CCCC [LIPID 23] | % | 100 |
| CCCCCCCC(=O)OCC(C)(COC(=O)CCCCCCC)COC(=O)CCN(CCC(=O)OCC(C)(COC(=O)CCCCCCC)COC(=O)CCCCCCC)C(=O)SCCCN(C)C [LIPID 24] | % | 100 |
| CN(C)CCCSC(=O)N(CCCC(=O)OC(COC(=O)CCCC1CCCCC1)COC(=O)CCCC1CCCCC1)CCCC(=O)OC(COC(=O)CCCC1CCCCC1)COC(=O)CCCC1CCCCC1 [LIPID 11] | % | 40 |
| CCCCCCC(C)C(=O)OCC(COC(=O)C(C)CCCCCC)OC(=O)CCCN(CCCC(=O)OC(COC(=O)C(C)CCCCCC)COC(=O)C(C)CCCCCC)C(=O)SCCCN(C)C (centres unmarked) [LIPID 18] | % | 100 |
| CCC1CCC(C(=O)OCC(COC(=O)C2CCC(CC)CC2)OC(=O)CCCN(CCCC(=O)OC(COC(=O)C2CCC(CC)CC2)COC(=O)C2CCC(CC)CC2)C(=O)SCCCN(C)C)CC1 (centres unmarked) [LIPID 16] | % | 40 |

These measurements were taken from patent US12723023B2.
